Values compiled from patent US8921412B2.

# MEASURED_TARGET: human SGLT2 (Homo sapiens (Human), UniProt P31639)
# Sequence (P31639 whole entry): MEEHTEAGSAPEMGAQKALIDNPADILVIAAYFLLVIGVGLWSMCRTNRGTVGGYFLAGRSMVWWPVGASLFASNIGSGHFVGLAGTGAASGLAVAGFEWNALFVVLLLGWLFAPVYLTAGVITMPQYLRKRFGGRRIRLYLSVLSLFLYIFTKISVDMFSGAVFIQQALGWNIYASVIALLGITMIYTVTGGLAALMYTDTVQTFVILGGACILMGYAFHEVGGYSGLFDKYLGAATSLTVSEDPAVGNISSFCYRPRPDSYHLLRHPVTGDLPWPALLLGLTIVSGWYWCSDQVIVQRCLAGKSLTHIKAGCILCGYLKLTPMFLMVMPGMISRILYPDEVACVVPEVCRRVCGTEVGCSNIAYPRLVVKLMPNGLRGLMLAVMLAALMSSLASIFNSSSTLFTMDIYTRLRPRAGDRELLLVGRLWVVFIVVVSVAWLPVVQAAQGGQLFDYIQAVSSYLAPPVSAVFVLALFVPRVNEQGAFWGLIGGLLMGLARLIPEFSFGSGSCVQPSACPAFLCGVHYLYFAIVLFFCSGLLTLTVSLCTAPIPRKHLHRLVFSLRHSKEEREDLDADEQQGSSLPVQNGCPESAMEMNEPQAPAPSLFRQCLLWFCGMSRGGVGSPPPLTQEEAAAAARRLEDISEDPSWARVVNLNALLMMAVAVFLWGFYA
# RUN_DESCRIPTION: Inhibitory effects on human SGLT2 activities (14C-AMG uptake in CHO cells expressing hSGLT2)
# CONDITION_INFO: CHO cells stably expressing hSGLT2, 37° C., 2 h
PROPERTY: IC50

Below: 3 compounds and their reported IC50.
Record request: IC50 value, item O[C@@H]1[C@@H](O)[C@H]2O[C@H](COCCCCOc3cc(Cl)c(Cc4ccc5c(c4)OCCO5)cc32)[C@H]1O [Example 13] 3.65 nM

Could you do the same for CCOc1ccc(Cc2cc3c(cc2Cl)OC/C=C\COC[C@H]2O[C@@H]3[C@H](O)[C@@H](O)[C@@H]2O)cc1 [Example 1] , please? 0.974 nM

Could you do the same for CSc1ccc(Cc2cc3c(cc2Cl)OCCCCCOC[C@H]2O[C@@H]3[C@H](O)[C@@H](O)[C@@H]2O)cc1 [Example 12] , please? 0.778 nM

# input for lookup
Record request: IC50 value, item CCOc1ccc(Cc2cc3c(cc2Cl)OC[C@H]2C[C@H]2COC[C@H]2O[C@@H]3[C@H](O)[C@@H](O)[C@@H]2O)cc1 [Example 15] 2.3 nM
